src = paper PMC11174489

# system tested: human adrenergic receptor (ADR) α1D (Homo sapiens)
# Sequence (P25100 1-572): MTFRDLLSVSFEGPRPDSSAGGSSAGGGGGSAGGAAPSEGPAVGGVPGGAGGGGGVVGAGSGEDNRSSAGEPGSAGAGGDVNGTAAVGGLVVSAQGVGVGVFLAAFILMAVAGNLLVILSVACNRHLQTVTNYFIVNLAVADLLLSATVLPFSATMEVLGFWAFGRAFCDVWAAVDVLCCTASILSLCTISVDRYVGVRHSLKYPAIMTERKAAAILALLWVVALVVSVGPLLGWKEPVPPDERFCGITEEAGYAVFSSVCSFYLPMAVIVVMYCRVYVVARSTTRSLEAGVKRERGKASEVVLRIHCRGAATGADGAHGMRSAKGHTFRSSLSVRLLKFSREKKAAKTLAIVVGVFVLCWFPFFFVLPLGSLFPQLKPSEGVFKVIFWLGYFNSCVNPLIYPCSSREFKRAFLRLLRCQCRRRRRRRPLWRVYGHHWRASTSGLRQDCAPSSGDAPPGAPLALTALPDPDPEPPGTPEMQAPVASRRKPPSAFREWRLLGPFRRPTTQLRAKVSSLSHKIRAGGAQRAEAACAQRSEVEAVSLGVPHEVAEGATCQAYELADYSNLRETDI
# assay info: ADRα1D activation, Ca2+ influx (Fluo-8) in overexpressing chem-1 cells
# condition description: Ca2+ response, chem-1 cells; average (95% confidence interval), 7–9 experiments
readout type: EC50

See these solved cases before continuing.
1) CN(C)CCc1ccccc1 : 8.4 µM
2) CC(CN)c1ccccc1 (stereo not shown) : > 300 µM
3) CC(C)NCC(O)c1ccc(O)cc1 (stereo not shown) : > 300 µM

Now for a further compound.
Find the measured EC50 of Oc1ccc(CC2NCCc3cc(O)c(O)cc32)cc1 (stereo not shown) and report it.
> 300 µM

* * *

# system tested: human adrenergic receptor (ADR) β2 (Homo sapiens)
# Construct: host or cells: rat chem-1 cells
# Sequence (P07550 whole entry): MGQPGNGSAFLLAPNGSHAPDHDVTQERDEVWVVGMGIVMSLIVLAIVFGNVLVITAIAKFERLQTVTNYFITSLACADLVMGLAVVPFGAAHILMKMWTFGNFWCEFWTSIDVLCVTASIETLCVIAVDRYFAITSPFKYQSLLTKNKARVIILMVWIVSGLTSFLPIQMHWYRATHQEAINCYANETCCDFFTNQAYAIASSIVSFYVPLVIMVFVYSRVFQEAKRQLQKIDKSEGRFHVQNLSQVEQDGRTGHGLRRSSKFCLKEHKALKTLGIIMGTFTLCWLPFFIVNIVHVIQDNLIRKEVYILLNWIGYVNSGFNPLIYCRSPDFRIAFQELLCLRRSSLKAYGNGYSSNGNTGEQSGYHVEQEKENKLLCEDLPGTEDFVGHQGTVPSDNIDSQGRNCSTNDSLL
# assay info: ADRβ2 activation, Ca2+ influx (Fluo-8) in overexpressing chem-1 cells
# Format: cell-based
# condition description: % of maximal signal obtained by adrenaline; average (95% CI)
readout type: ADRβ2 Emax

See these solved cases before continuing.
1) CNC(C)C(O)c1ccc(O)cc1 (centres unmarked) [Methylsynephrine] : -
2) CCC(C)CC(C)N (centres unmarked) [1,3-Dimethylamylamine, 1,3-dimethylamylamine] : -
3) CC(C)CC(C)N (centres unmarked) : -
4) CNCC(O)c1ccccc1 (centres unmarked) [Halostachine, halostachine] : -
5) NCCc1ccccc1 [Phenethylamine, phenethylamine] : -

Below are 8 compounds. Give each one its ADRβ2 Emax.
1. CN(C)CCc1ccc(O)cc1 [Hordenine, hordenine]
2. CN(C)CCO [Dimethylaminoethanol, dimethylaminoethanol]
3. CN(C)CCc1ccccc1 [Dimethylphenethylamine, N,N-dimethylphenethylamine]
4. CC(C)NCC(O)c1ccc(O)cc1 (centres unmarked) [Isopropyloctopamine, isopropyloctopamine]
5. CC(C)CCCC(C)N (centres unmarked)
6. CC(CN)c1ccccc1 (stereo not drawn) [β-Methylphenethyl-amine, beta-methylphenethylamine]
7. NCC(O)c1ccc(O)cc1 (centres unmarked) [p-Octopamine, p-octopamine]
8. CNCC(O)c1ccc(O)cc1 (centres unmarked) [p-Synephrine, p-synephrine]

1. -
2. -
3. -
4. -
5. -
6. -
7. -
8. -

Please respond with reported ADRβ2 Emax (system human adrenergic receptor (ADR) β2 (Homo sapiens)) for NCCc1ccc(O)cc1 [Tyramine, tyramine] .
-

* * *

# system tested: human adrenergic receptor (ADR) α2A (Homo sapiens)
# Construct: host or cells: rat chem-1 cells
# Sequence (P08913 whole entry): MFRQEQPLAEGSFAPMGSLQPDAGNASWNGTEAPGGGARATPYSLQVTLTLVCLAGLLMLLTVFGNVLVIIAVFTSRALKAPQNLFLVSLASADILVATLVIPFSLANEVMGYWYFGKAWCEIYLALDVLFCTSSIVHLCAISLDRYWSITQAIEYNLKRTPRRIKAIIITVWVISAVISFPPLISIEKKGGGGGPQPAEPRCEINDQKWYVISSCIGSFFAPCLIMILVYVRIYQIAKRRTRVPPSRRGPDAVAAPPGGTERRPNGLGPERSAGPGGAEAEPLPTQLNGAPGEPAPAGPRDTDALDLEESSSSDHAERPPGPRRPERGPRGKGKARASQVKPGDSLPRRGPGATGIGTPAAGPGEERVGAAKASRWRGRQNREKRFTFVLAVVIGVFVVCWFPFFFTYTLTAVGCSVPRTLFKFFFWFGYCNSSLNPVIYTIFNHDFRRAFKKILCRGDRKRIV
# assay info: ADRα2A activation, Ca2+ influx (Fluo-8) in overexpressing chem-1 cells
# Assay type: cell-based
# condition description: Ca2+ response, chem-1 cells; average (95% confidence interval), 7–9 experiments
pEC50: −log10 of the molar value.
readout type: pEC50

1) CC(CN)c1ccccc1 (centres unmarked) : < 3.52
2) CNCC(O)c1ccccc1 (centres unmarked) : < 3.52
3) CC(C)CC(C)N (centres unmarked) : < 3.52
4) NCCc1ccc(O)cc1 : < 3.52
5) CN(C)CCO : < 3.52
6) CNC(C)C(O)c1ccc(O)cc1 (centres unmarked) [Methylsynephrine] : < 3.52
7) NCCc1ccccc1 : < 3.52
8) Oc1ccc(CC2NCCc3cc(O)c(O)cc32)cc1 (centres unmarked) : < 3.52
9) CCC(C)CC(C)N (centres unmarked) : < 3.52
10) CC(C)CCCC(C)N (centres unmarked) : < 3.52

Now for a further compound.
Find the measured pEC50 of CN(C)CCc1ccc(O)cc1 and report it.
3.16

* * *

# system tested: human adrenergic receptor (ADR) α2A (Homo sapiens)
# assay info: ADRα2A activation, Ca2+ influx (Fluo-8) in overexpressing chem-1 cells
# condition description: Ca2+ response, chem-1 cells; average (95% confidence interval), 7–9 experiments
readout type: EC50

See these solved cases before continuing.
1. NCC(O)c1ccc(O)cc1 (stereo not shown) : > 300 µM
2. CC(C)NCC(O)c1ccc(O)cc1 (stereo not shown) : > 300 µM

Below are 2 compounds. Give each one its EC50.
1. CNCC(O)c1ccc(O)cc1 (stereo not shown) [p-Synephrine, p-synephrine]
2. CN(C)CCc1ccccc1

1: 100 µM; 2: > 300 µM

* * *

Kindly supply the reported Emax values for the records listed here.
# system tested: human adrenergic receptor (ADR) α1A (Homo sapiens)
# Construct: host or cells: rat chem-1 cells
# Sequence (P35348 1-466): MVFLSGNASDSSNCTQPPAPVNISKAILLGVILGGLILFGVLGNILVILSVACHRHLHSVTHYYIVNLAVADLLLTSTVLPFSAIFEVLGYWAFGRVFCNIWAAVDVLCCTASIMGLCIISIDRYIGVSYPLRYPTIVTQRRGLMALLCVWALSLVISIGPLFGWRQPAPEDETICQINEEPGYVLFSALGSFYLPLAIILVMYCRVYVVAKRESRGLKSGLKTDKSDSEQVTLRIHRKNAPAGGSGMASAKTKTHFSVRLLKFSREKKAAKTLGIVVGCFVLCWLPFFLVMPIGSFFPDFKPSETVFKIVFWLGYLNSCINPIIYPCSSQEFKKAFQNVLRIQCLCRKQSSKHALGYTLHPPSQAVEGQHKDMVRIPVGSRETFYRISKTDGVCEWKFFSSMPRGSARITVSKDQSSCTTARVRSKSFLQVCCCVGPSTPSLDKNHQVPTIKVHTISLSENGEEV
# assay info: ADRα1A activation, Ca2+ influx (Fluo-8) in overexpressing chem-1 cells
# Format: cell-based
# condition description: Chem-1
Numbers only, in %.

Below are 5 molecules. Give each one its Emax.
1. CNCC(O)c1ccc(O)cc1 (centres unmarked) [p-Synephrine, p-synephrine]
2. CNC(C)C(O)c1ccc(O)cc1 (centres unmarked) [Methylsynephrine]
3. CNC[C@H](O)c1ccc(O)c(O)c1 [Adrenaline, adrenaline, reference compound]
4. CNCC(O)c1ccccc1 (centres unmarked) [Halostachine, halostachine]
5. NCC(O)c1ccc(O)cc1 (centres unmarked) [p-Octopamine, p-octopamine]

1: 82; 2: 16; 3: 98; 4: 59; 5: 87

* * *

# system tested: human adrenergic receptor (ADR) β2 (Homo sapiens)
# assay info: ADRβ2 activation, Ca2+ influx (Fluo-8) in overexpressing chem-1 cells
# condition description: Ca2+ response, chem-1 cells; average (95% confidence interval), 7–9 experiments
pEC50: −log10 of the molar value.
Kindly supply the reported pEC50 values for the records listed here.

See these solved cases before continuing.
1) NCC(O)c1ccc(O)cc1 (centres unmarked) [p-Octopamine, p-octopamine] : < 3.52
2) CC(C)CC(C)N (centres unmarked) : < 3.52
3) CNCC(O)c1ccccc1 (centres unmarked) [Halostachine, halostachine] : < 3.52
4) CC(C)NCC(O)c1ccc(O)cc1 (centres unmarked) [Isopropyloctopamine, isopropyloctopamine] : < 3.52
5) CC(CN)c1ccccc1 (stereo not drawn) [β-Methylphenethyl-amine, beta-methylphenethylamine] : < 3.52

Below are 8 compounds. Give each one its pEC50.
1. CNCC(O)c1ccc(O)cc1 (centres unmarked) [p-Synephrine, p-synephrine]
2. CNC(C)C(O)c1ccc(O)cc1 (centres unmarked) [Methylsynephrine]
3. NCCc1ccccc1 [Phenethylamine, phenethylamine]
4. CN(C)CCO [Dimethylaminoethanol, dimethylaminoethanol]
5. Oc1ccc(CC2NCCc3cc(O)c(O)cc32)cc1 (centres unmarked) [Higenamine, higenamine]
6. CN(C)CCc1ccc(O)cc1 [Hordenine, hordenine]
7. CC(C)CCCC(C)N (centres unmarked)
8. CCC(C)CC(C)N (centres unmarked) [1,3-Dimethylamylamine, 1,3-dimethylamylamine]

["< 3.52", "< 3.52", "< 3.52", "< 3.52", 6.33, "< 3.52", "< 3.52", "< 3.52"]

Find the measured pEC50 of CN(C)CCc1ccccc1 [Dimethylphenethylamine, N,N-dimethylphenethylamine] and report it.
< 3.52
